target: GHSR1a receptor (Homo sapiens); construct: expressed in transfected cells; host or cells: HEK293 (membranes); assay: 125I-Ghrelin binding assay; details: displacement of 125I-ghrelin (0.053 nM), membranes of HEK293 cells transfected with GHSR1a; Cheng-Prussoff; '—' not defined; read-out: Binding pKi (converted)
Sequence (Q92847 whole entry): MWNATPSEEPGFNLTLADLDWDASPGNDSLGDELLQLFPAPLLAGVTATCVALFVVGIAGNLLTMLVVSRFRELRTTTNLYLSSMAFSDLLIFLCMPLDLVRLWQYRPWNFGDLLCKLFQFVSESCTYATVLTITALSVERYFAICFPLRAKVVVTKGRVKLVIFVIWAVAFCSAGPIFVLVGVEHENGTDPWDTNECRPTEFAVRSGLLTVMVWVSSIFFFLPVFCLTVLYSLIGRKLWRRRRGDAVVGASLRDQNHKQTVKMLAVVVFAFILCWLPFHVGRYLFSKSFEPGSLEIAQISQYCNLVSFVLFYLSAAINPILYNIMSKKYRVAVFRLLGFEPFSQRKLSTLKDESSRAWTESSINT
value kind: Ki (nM)
Give the value in nM but do not write nM after it.

Q: Could you share which Ki value was measured for COc1cccc2c(C(C)=O)cn(CCCN3CCC(Oc4ccc(Cl)cc4)CC3)c12 [drawing 276] ?
Ans: 200

Q: For COc1cccc2c(C(C)=O)cn(CCCN3CCCN(Cc4ccccc4Cl)CC3)c12 , what is its reported Ki?
Ans: 10

Q: What does the record list as Ki for O=C(c1cn(CCCN2C3CCC2CC(CCc2ccccc2)C3)c2ncccc12)C(F)(F)F (stereo not drawn) ?
Ans: 200

Q: # lookup: Ki of COc1ccccc1C1CCN(CCCn2cc(C(=O)NCC(C)C)c3cccc(OC)c32)CC1
Ans: 126

Q: Find the recorded Ki belonging to COc1cccc2c(C(C)=O)cn(CCCN3CCN(c4ccc(C(F)(F)F)cc4)CC3)c12 and report it.
Ans: 251

Q: Fill in the blank: the reported Ki of CCCCC1CCN(CCCn2cc(C(=O)NCC(C)C)c3cccc(OC)c32)CC1 is ____.
Ans: 200

Q: So what's the measured Ki for this one? CCCCC1CCN(CCCn2cc(C(=O)NCc3cccc(C)c3)c3cccc(OC)c32)CC1
Ans: 316

Q: What value of Ki has been recorded for this entry: COc1cccc2c(C#N)cn(CCCN3CCCN(Cc4ccccc4Cl)CC3)c12
Ans: 12.6

Q: # get_value(readout='Ki', item= COc1ccccc1C1CCN(CCCn2cc(C(C)=O)c3cccc(OC)c32)CC1 )
Ans: 631

Q: I'd like to know its Ki. The compound in question is CCCCC1CCN(CCCn2cc(C(C)=O)c3cccc(OC)c32)CC1
Ans: 1580

Q: Which Ki value is on record for COc1cccc2c(C(C)=O)cn(CCCN3CCN(c4ccc(C(F)(F)F)cc4[N+](=O)[O-])CC3)c12 ?
Ans: 631

Q: Which value of Ki has been reported for CC(=O)c1cn(CCCN2CCC(c3nc4ccccc4s3)CC2)c2c(Br)cccc12 in the records?
Ans: 200

Q: Looking for the measured Ki of CC(=O)c1cn(CCCN2CCC(C(=O)c3ccccc3)CC2)c2c(C)cccc12 , can you help?
Ans: 100

Q: Would you mind telling me what Ki value was observed for COc1cccc2c(C(C)=O)cn(CCCN3CCC(C(=O)c4ccccc4)CC3)c12 ?
Ans: 2000

Q: Fill in: Ki of COc1cccc2c(C(=O)c3ccccc3)cn(CCCN3CCN(Oc4cccc(Cl)c4)CC3)c12 is ___
Ans: 7.94

Q: Query: Ki; subject: CCCCC(=O)c1cn(CCCN2CCC(Oc3ccc(Cl)cc3)CC2)c2ccc(OC)cc12
Ans: 251

Q: Look up Ki: COc1cccc2c(C(C)=O)cn(CCCN3CCC(c4nc5ccccc5s4)CC3)c12 [drawing 310]
Ans: 158

Q: Consider the compound CC(=O)c1c(C)n(CCCN2C3CCC2CC(CC(=O)c2ccc(Cl)cc2)C3)c2c(Br)cccc12 (stereo not drawn) and give its measured Ki.
Ans: 63.1

Q: Endpoint output: Ki of CCCCCCC1CCN(CCCn2cc(C(C)=O)c3ccccc32)CC1 . Value?
Ans: 6310

Q: Fill in: Ki of COc1cccc2c(C(=O)NCC(C)C)cn(CCCN3C4CCC3CC(Oc3ccccc3Cl)C4)c12 (stereo not drawn) is ___
Ans: 100

Q: Given the entry COc1ccccc1C1CCN(CCCn2cc(C(C)=O)c3cccc(C)c32)CC1 , report its measured Ki.
Ans: 1260

Q: I am curious: what Ki value has been reported for COc1cccc2c(C(C)=O)cn(CC(C)CN3C4CCC3CC(CC(=O)c3ccc(Cl)cc3)C4)c12 (stereo not drawn) ?
Ans: 398

Q: Need Ki of COc1cccc2c(C(=O)Cc3ccccc3)cn(CCCN3CCCN(Cc4ccccc4Cl)CC3)c12 , thanks.
Ans: 6.31

Q: Fill blank: measured Ki of the compound COc1ccc(C(=O)OC2C[C@H]3CC[C@@H](C2)N3CCCn2cc(C(C)=O)c3cccc(OC)c32)cc1OC (stereo partly drawn) is ____.
Ans: 1000

Q: Ki lookup needed for CC(=O)c1c(C)n(CCCN2CCC(Oc3cccc(Cl)c3)CC2)c2c(Br)cccc12 , thanks.
Ans: 631

Q: Which Ki value is on record for CC(=O)c1cn(CCCN2C3CCC2CC(Oc2ccccc2Cl)C3)c2ncccc12 (stereo not drawn) ?
Ans: 31.6

Q: Which Ki is listed for COc1ccc2c(c1)C1CCN(CCCn3cc(C(C)=O)c4ccccc43)CC1C2 (stereo not drawn) ?
Ans: 5010
